- study system: Genome polyprotein (Dengue virus type 2 (strain 16681-PDK53))
- procedure summary: flavivirus cap methylation enzyme inhibition – biochemical, confirmation dose response, primary screen (AID 588689)
- run parameters: Dengue-2 NS5 methyltransferase capping enzyme assay, at 25 µM, active compounds read high
Out of some 340,000 compounds screened, about 1,000 (0.29%) were called active. The list is a sample of the results. Entries with a potency or affinity are not part of this list.
quantity kind: inhibition (%)
One number for each entry, in %.

The examples below pair each entry with its known result.
CCOC(=O)c1c(C)nn(-c2ccc(NC(=O)/C=C/C(=O)O)cc2)c1C = -3.06
O=C1C(Cl)=C(N2CCCC2)C(=O)N1c1ccc(F)cc1 = 10.2
Cc1nc(CC(=O)NNS(=O)(=O)c2cccc(Cl)c2Cl)cs1 = -1.61

Working through the 3 compounds below one at a time, give inhibition for each.
1. CCOC(=O)Cn1cnc2sc3c(c2c1=O)CCC3
2. CCOC(=O)NC1(C(F)(F)F)NC(=O)N(C2CCCCC2)C1=O (stereo unspecified)
3. CCOc1ccccc1/C=c1\sc2ncnn2c1=O

[out]
1. -3.92
2. -2.12
3. 3.42

---

- study system: Genome polyprotein (Dengue virus type 2 (strain 16681-PDK53))
- procedure summary: flavivirus cap methylation enzyme inhibition – biochemical, confirmation dose response, primary screen (AID 588689)
- run parameters: Dengue-2 NS5 methyltransferase capping enzyme assay, at 25 µM, active compounds read high
The whole screen tested about 340,000 compounds, of which about 1,000 (0.29%) were called active. A selection follows. Entries with a potency or affinity are not part of this list.
quantity kind: inhibition (%)
Give bare numbers, in %.

Cc1cc(/C=C2\C(=O)NN(c3ccccc3)C2=O)c(C)n1-c1ccccc1O = 2.89
COc1cc(C=C2C(=O)c3ccccc3C2=O)cc(OC)c1 = 18
N#C/C(=C\c1cccc(OC(=O)c2cccs2)c1)C(N)=O = -25
O=C1NN(c2ccc(Br)cc2)C(=O)/C1=C\c1ccc(O)cc1O = -25.4
COc1cccc(C(C[N+](=O)[O-])c2c(C)[nH]n(-c3ccccc3)c2=O)c1 (centres undefined) = 8.91
COc1ccc(OC)c(C(=O)c2c(C)oc3cc([N+](=O)[O-])c(O)c([N+](=O)[O-])c23)c1 = 25.1
Oc1ccc(N=Nc2ccc3ccccc3c2)cc1 = -0.57
O=S(=O)(O)c1cccc(N=Nc2c(O)ccc3ccccc23)c1 = 1.57

Proceed to the following item.
[in] For the molecule shown here, CN(C)c1ccc2cc(S(=O)(=O)O)cc(O)c2c1 , give the reported inhibition.
[out] 81.6
